- Tested System: Lck (h) (Homo sapiens, UniProt P06239)
- Sequence (P06239 whole entry): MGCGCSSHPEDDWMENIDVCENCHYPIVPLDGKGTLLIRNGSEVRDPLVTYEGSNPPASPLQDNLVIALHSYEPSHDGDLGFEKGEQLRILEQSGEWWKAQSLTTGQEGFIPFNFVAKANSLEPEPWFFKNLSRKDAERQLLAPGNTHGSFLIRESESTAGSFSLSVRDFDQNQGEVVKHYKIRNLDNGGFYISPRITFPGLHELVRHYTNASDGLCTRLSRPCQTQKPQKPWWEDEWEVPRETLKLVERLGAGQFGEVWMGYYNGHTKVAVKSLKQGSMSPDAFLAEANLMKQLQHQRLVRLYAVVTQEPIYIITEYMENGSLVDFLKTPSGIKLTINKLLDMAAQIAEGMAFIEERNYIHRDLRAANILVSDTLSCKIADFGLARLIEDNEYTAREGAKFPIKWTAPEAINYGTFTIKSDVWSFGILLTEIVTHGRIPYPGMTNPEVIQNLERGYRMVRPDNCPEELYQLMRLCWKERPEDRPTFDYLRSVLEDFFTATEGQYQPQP
- Procedure Summary: Lck Human STE Kinase Enzymatic Radiometric Assay
- Format: biochemical
- Setup Conditions: selectivity for inhibition of HPK1 vs Lck
- Description: (b) Lck Human STE Kinase Enzymatic Radiometric Assay Lck (h) is incubated with 50 mM Tris pH 7.5, 0.1 mM EGTA, 0.1 mM Na3VO4, 250 uM KVEKIGEGTYGVVYK (Cdc2 peptide), 10 mM MgAcetate and [gamma-33P]-ATP (specific activity and concentration as required). The reaction is initiated by the addition of the Mg/ATP mix. After incubation for 40 minutes at room temperature, the reaction is stopped by the addition of phosphoric acid to a concentration of 0.5%. […]
Would you mind telling me the reported Selectivity of each entry?
Give the figure by itself; no unit, no explanation.

Need Selectivity of CC(C)[C@@H]1CN(c2ccc(-c3cnc(N)c(-c4ccc5c(c4)CCNC5=O)n3)c(F)c2)CCO1 , thanks.
2740

Record request: Selectivity value, item CC(C)[C@H]1CN(c2ccc(-c3cnc(N)c(-c4ccc5c(c4)CCNC5=O)n3)cc2)CCO1
170

Which Selectivity is reported for this molecule? Nc1ncc(-c2ccc(N3CCOCC3)cc2)nc1-c1ccc2c(c1)CCNC2=O [Comparator 1, reference compound]
31

Given the entry CC(C)[C@H]1CN(c2ccc(-c3cnc(N)c(-c4ccc5c(c4)CCNC5=O)n3)c(F)c2)CCO1 , report its measured Selectivity.
1066

Please give the measured Selectivity for this molecule: C[C@@H]1COCCN1c1ccc(-c2cnc(N)c(-c3ccc4c(c3)CCNC4=O)n2)cc1
170

Fill blank: measured Selectivity of the molecule Nc1ncc(-c2ccc(N3CCOCC3)cc2F)nc1-c1ccc2c(c1)CCNC2=O [Comparator 4, reference compound] is ____.
405

Request the reported Selectivity associated with Nc1ncc(-c2ccc(N3CCOCC3)c(F)c2F)nc1-c1ccc2c(c1)CCNC2=O [Comparator 2, reference compound]
930
